The origin of these recorded values is patent US8680122B2.

- TESTED_TARGET: Pancreas GK (Homo sapiens)
- Construct: (His)6; made in house; host or cells: Escherichia coli
- Sequence (P35557 whole entry): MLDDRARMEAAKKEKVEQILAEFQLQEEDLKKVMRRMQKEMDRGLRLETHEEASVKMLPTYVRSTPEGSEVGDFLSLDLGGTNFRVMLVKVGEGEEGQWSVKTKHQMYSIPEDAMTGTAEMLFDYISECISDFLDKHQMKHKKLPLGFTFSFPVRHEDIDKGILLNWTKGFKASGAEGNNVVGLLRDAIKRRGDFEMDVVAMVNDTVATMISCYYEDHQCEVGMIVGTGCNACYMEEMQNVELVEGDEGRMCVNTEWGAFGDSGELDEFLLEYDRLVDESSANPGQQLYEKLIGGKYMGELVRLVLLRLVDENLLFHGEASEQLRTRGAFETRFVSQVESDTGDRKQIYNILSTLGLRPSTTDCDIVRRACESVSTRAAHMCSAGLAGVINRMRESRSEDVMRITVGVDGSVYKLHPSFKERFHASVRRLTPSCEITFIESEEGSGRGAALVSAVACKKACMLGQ
- ASSAY_INFO: Glucokinase enzyme assay, pancreas GK
- Format: biochemical
- RUN_PARAMETERS: concentration that produces 100% activation above the vehicle control
MEASURED_PARAMETER: EC100%

1. COc1ccc(CN2C(=O)C(C)=C(C)C2OCC(=O)Nc2ccc(C)cn2)cc1 (stereo not drawn) | >50 µM
2. COc1ccc(CN2C(=O)C(C)=C(C)C2OCC(=O)Nc2ccccn2)cc1 (stereo not drawn) | >50 µM

# next compound below
**Q:** Need EC100% of COC(=O)c1ccc(NC(=O)COC2C(C)=C(C)C(=O)N2Cc2ccc(OC)cc2)nc1 (stereo not drawn) , thanks.
**A:** >50 µM

###

- TESTED_TARGET: Pancreas GK (Homo sapiens)
- Construct: (His)6
- ASSAY_INFO: Glucokinase enzyme assay, pancreas GK
- RUN_PARAMETERS: concentration that produces 50% activation above the vehicle control
Examples of compounds with documented EC50 follow.
Please give a number only; it is taken to be in µM.

**Q:** Need EC50 of COc1ccc(CN2C(=O)C(C)=C(C)C2SCC(=O)Nc2cc(C)ccn2)cc1 (stereo not drawn) [Compound 21] , thanks.
**A:** 7.12

**Q:** Need EC50 of CC1=C(C)C(SCC(=O)Nc2ccccn2)N(Cc2ccc(C(C)C)cc2)C1=O (stereo not drawn) [Compound 25] , thanks.
**A:** 14.7

**Q:** Need EC50 of COC(=O)c1ccc(NC(=O)CSC2C(C)=C(C)C(=O)N2Cc2cccs2)nc1 (stereo not drawn) [Compound 38] , thanks.
**A:** 1.09

**Q:** Need EC50 of CCc1ccnc(NC(=O)CSC2C(C)=C(C)C(=O)N2Cc2ccc(OC)cc2)c1 (stereo not drawn) [Compound 22] , thanks.
**A:** 24.1

**Q:** Need EC50 of COC(=O)c1ccc(NC(=O)CSC2C(C)=C(C)C(=O)N2Cc2cc(OC)cc(OC)c2)nc1 (stereo not drawn) [Compound 40] , thanks.
**A:** 2.3
